- assay-overview: Cmax in Sprague-Dawley rat at 5 mg/kg, iv measured upto 24 hrs by LC-MS/MS analysis
- Format: ADME, organism-based
- Set-up: time < 24 hrs, dose 5 mg/kg, route iv
- applied-conditions: in vivo
measured-endpoint: Cmax (ng/mL)
The answer is to be given in ng/mL; state only the numeric part.

(Q) Which Cmax reading was recorded for the compound C[C@H]1CC[C@@H](c2nc3cccc(Cl)c3c(=O)n2-c2cccnc2)N1c1nc(N)nc(N)c1C#N ?
(A) 860

====

- System: DOHH-2
- assay-overview: Antiproliferative activity against human DOHH-2 cells assessed as cell growth inhibition measured after 72 hrs by MTT assay
- Type: functional, cell-based
- applied-conditions: DOHH-2, 72 h
Quick reference for pIC50 among some compounds
# log scale: pIC50 equals minus log10 of the concentration in mol/L

Worked cases, pIC50 given:
1. C[C@H]1CC[C@@H](c2nc3ccc(Cl)cc3c(=O)n2-c2cccnc2)N1c1nc(N)nc(N)c1C#N: 5.98
2. C[C@H]1CC[C@@H](c2nc3ccc(F)cc3c(=O)n2-c2cccnc2)N1c1nc(N)nc(N)c1C#N: 5.72
3. C[C@H]1CC[C@@H](c2nc3cccc(Cl)c3c(=O)n2-c2ccccc2)N1c1cc(Cl)nc(N)n1: 5.53
4. C[C@H]1CC[C@@H](c2nc3cccc(C#Cc4ccsc4)c3c(=O)n2-c2ccccc2)N1c1nc(N)nc(N)c1C#N: 6.19
5. CCn1cc(-c2cccc3nc([C@@H]4CC[C@H](C)N4c4nc(N)nc(N)c4C#N)n(-c4ccccc4)c(=O)c23)cn1: 6.13
6. N#Cc1c(N)nc(N)nc1N1[C@H](c2nc3cccc(F)c3c(=O)n2-c2cc(F)cc(F)c2)C[C@@H]2CCCC[C@@H]21: 5.61
7. COc1ccc(-c2cccc3nc([C@@H]4CC[C@H](C)N4c4nc(N)nc(N)c4C#N)n(-c4ccccc4)c(=O)c23)cc1: 5.94

Next, consider the following compound.
(Q) Which pIC50 reading was recorded for the compound C[C@H]1CC[C@@H](c2nc3cccc(-c4cccnc4)c3c(=O)n2-c2ccccc2)N1c1nc(N)nc(N)c1C#N ?
(A) 6.00

====

- experimental-system: Phosphatidylinositol 4,5-bisphosphate 3-kinase catalytic subunit beta isoform (Homo sapiens, UniProt P42338)
- Sequence (P42338 whole entry, looked up, canonical isoform): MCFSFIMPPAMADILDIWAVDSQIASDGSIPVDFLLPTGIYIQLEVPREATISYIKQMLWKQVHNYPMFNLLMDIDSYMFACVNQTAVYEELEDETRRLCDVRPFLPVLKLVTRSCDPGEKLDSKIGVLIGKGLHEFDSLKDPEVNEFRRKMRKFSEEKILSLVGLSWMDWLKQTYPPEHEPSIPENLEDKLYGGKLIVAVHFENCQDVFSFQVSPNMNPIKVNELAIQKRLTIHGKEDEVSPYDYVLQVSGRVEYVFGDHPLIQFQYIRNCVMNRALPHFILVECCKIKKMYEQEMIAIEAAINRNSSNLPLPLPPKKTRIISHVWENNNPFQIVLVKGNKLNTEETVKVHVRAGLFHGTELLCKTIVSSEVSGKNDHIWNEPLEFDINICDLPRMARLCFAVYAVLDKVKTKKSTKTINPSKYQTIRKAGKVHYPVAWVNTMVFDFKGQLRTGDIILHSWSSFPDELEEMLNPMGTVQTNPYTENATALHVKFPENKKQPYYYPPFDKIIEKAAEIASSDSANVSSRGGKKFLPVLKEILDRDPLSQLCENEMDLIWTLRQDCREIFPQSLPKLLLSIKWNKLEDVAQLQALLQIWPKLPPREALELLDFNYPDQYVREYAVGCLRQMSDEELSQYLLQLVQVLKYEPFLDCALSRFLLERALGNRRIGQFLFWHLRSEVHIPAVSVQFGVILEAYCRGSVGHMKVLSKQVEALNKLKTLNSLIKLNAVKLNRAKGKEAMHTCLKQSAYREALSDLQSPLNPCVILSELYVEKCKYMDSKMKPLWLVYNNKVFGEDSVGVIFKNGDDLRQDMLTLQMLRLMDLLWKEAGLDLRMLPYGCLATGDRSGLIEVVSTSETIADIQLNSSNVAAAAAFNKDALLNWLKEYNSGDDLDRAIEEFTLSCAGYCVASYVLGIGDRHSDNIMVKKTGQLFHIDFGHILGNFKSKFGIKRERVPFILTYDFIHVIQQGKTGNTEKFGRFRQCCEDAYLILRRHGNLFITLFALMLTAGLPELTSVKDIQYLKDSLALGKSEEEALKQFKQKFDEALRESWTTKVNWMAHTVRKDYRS
- assay-overview: Inhibition of N-terminal His6-tagged recombinant full length human PI3Kbeta expressed in baculovirus infected Sf21 insect cells at 1 uM by HTRF assay relative to control
Quick reference for inhibition among some compounds
Write the quantity with the unit trailing the number.

1. C[C@H]1CC[C@@H](c2nc3c(F)cccc3c(=O)n2-c2cccnc2)N1c1nc(N)nc(N)c1C#N: 23%
2. C[C@H]1CC[C@@H](c2nc3cccc(C#Cc4ccccn4)c3c(=O)n2-c2ccccc2)N1c1nc(N)nc(N)c1C#N: 41%
3. C[C@H]1CC[C@@H](c2nc3cccc(C#Cc4cccnc4)c3c(=O)n2-c2ccccc2)N1c1nc(N)nc(N)c1C#N: 13%

Next, consider the following compound.
(Q) Which inhibition reading was recorded for the compound C[C@H]1CC[C@@H](c2nc3cccc(Cl)c3c(=O)n2N2CCOCC2)N1c1nc(N)nc(N)c1C#N ?
(A) 33%

====

Quick reference for inhibition among some molecules
- experimental-system: Phosphatidylinositol 4,5-bisphosphate 3-kinase catalytic subunit beta isoform (Homo sapiens, UniProt P42338)
- assay-overview: Inhibition of N-terminal His6-tagged recombinant full length human PI3Kbeta expressed in baculovirus infected Sf21 insect cells at 1 uM by HTRF assay relative to control

1) C[C@H]1CC[C@@H](c2nc3cccc(-c4cnn(C)c4)c3c(=O)n2-c2ccccc2)N1c1nc(N)nc(N)c1C#N: 20%
2) C[C@H]1CC[C@@H](c2nc3cc(F)ccc3c(=O)n2-c2cccnc2)N1c1nc(N)nc(N)c1C#N: 44%
3) C[C@H]1CC[C@@H](c2nc3cccc(-c4cnn(C5CC5)c4)c3c(=O)n2-c2cccnc2)N1c1nc(N)nc(N)c1C#N: 63%

Next, consider the following molecule.
(Q) Which inhibition reading was recorded for the molecule CCOc1cncc(-c2cccc3nc([C@@H]4CC[C@H](C)N4c4nc(N)nc(N)c4C#N)n(-c4ccccc4)c(=O)c23)c1 ?
(A) -3%

====

- assay-overview: Half life in Sprague-Dawley rat at 2 mg/kg, iv measured upto 24 hrs by LC-MS/MS analysis
- Type: ADME, organism-based
- applied-conditions: in vivo
measured-endpoint: half-life (min)
The answer is to be given in min; state only the numeric part.

(Q) Which half-life reading was recorded for the compound C[C@H]1CC[C@@H](c2nc3cccc(Cl)c3c(=O)n2-c2cccnc2)N1c1nc(N)nc(N)c1C#N ?
(A) 43.8

====

- assay-overview: Half life in Sprague-Dawley rat at 5 mg/kg, po measured upto 24 hrs by LC-MS/MS analysis
- Type: ADME, organism-based
- applied-conditions: in vivo
measured-endpoint: half-life

(Q) Which half-life reading was recorded for the molecule C[C@H]1CC[C@@H](c2nc3cccc(Cl)c3c(=O)n2-c2cccnc2)N1c1nc(N)nc(N)c1C#N ?
(A) 9.46 h

====

- experimental-system: Phosphatidylinositol 4,5-bisphosphate 3-kinase catalytic subunit delta isoform (Homo sapiens)
- assay-overview: Inhibition of N-terminal His6-tagged recombinant full length human PI3Kdelta expressed in baculovirus infected Sf21 insect cells at 0.1 uM by HTRF assay relative to control
measured-endpoint: inhibition
Write the quantity with the unit trailing the number.

Worked cases, inhibition given:
1. C[C@H]1CC[C@@H](c2nc3cccc(C#Cc4ccccn4)c3c(=O)n2-c2ccccc2)N1c1nc(N)nc(N)c1C#N: 6%
2. C[C@H]1CC[C@@H](c2nc3cccc(Cl)c3c(=O)n2N2CCOCC2)N1c1nc(N)nc2[nH]cnc12: 81%
3. C[C@H]1CC[C@@H](c2nc3cccc(F)c3c(=O)n2-c2cccnc2)N1c1nc(N)nc(N)c1C#N: 7%

(Q) Which inhibition reading was recorded for the compound CCOc1cncc(-c2cccc3nc([C@@H]4CC[C@H](C)N4c4nc(N)nc(N)c4C#N)n(-c4ccccc4)c(=O)c23)c1 ?
(A) -6%

====

- experimental-system: Phosphatidylinositol 4,5-bisphosphate 3-kinase catalytic subunit delta isoform (Homo sapiens) (UniProt O00329)
- Sequence (O00329 whole entry, canonical isoform): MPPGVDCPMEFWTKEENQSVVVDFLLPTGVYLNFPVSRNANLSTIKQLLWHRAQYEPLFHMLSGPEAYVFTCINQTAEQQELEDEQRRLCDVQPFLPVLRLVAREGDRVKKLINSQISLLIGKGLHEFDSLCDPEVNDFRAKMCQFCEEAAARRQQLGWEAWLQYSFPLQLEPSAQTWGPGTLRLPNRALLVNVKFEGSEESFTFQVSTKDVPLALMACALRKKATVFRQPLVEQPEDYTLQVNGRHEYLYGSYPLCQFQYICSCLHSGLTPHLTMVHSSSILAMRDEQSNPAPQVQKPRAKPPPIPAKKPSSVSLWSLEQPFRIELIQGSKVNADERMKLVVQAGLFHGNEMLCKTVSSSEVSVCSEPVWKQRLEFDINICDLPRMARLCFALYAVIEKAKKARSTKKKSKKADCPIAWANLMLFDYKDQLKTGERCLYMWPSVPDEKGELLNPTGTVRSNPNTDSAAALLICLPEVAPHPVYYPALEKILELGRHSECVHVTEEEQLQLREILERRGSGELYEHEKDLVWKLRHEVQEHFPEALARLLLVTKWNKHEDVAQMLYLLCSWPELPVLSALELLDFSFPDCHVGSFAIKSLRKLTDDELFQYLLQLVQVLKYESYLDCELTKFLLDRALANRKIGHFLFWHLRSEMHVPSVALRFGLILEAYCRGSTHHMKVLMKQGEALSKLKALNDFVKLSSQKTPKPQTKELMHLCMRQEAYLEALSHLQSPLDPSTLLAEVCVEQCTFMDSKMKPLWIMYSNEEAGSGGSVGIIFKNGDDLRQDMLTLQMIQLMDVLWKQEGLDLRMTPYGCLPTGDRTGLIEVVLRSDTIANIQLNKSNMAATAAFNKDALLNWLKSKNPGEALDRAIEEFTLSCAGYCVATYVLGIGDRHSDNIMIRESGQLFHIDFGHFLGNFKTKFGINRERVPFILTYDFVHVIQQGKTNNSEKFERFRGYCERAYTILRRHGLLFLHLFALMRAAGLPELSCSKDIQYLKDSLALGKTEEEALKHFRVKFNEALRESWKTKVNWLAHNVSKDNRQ
- assay-overview: Inhibition of N-terminal His6-tagged recombinant full length human PI3Kdelta expressed in baculovirus infected Sf21 insect cells at 0.1 uM by HTRF assay relative to control
measured-endpoint: inhibition (%)
The answer is to be given in %; state only the numeric part.

Worked cases, inhibition given:
1. C[C@H]1CC[C@@H](c2nc3cccc(Cl)c3c(=O)n2-c2cc(F)cc(F)c2)N1c1nc(N)nc2[nH]cnc12: 12
2. C[C@H]1CC[C@@H](c2nc3cccc(-c4cnn(C5CC5)c4)c3c(=O)n2-c2ccccc2)N1c1nc(N)nc(N)c1C#N: 0

(Q) Which inhibition reading was recorded for the compound C[C@H]1CC[C@@H](c2nc3cccc(Cl)c3c(=O)n2-c2ccccc2)N1c1cc(Cl)nc(N)n1 ?
(A) 76

(Q) Which inhibition reading was recorded for the compound C[C@H]1CC[C@@H](c2nc3cccc(Cl)c3c(=O)n2N2CCOCC2)N1c1nc(N)nc(N)c1C#N ?
(A) 10

(Q) Which inhibition reading was recorded for the compound COc1cccc(C#Cc2cccc3nc([C@@H]4CC[C@H](C)N4c4nc(N)nc(N)c4C#N)n(-c4ccccc4)c(=O)c23)c1 ?
(A) 9

(Q) Which inhibition reading was recorded for the compound C[C@H]1CC[C@@H](c2nc3c(F)cccc3c(=O)n2-c2cccnc2)N1c1nc(N)nc(N)c1C#N ?
(A) 6

(Q) Which inhibition reading was recorded for the compound N#Cc1c(N)nc(N)nc1N1[C@H](c2nc3cccc(Cl)c3c(=O)n2-c2cc(F)cc(F)c2)C[C@@H]2CCCC[C@@H]21 ?
(A) 34

(Q) Which inhibition reading was recorded for the compound C[C@H]1CC[C@@H](c2nc3cccc(-c4cnn(C)c4)c3c(=O)n2-c2ccccc2)N1c1nc(N)nc(N)c1C#N ?
(A) -8

====

- experimental-system: Phosphatidylinositol 4,5-bisphosphate 3-kinase catalytic subunit gamma isoform (Homo sapiens, UniProt P48736)
- Sequence (P48736 whole entry, looked up, canonical isoform): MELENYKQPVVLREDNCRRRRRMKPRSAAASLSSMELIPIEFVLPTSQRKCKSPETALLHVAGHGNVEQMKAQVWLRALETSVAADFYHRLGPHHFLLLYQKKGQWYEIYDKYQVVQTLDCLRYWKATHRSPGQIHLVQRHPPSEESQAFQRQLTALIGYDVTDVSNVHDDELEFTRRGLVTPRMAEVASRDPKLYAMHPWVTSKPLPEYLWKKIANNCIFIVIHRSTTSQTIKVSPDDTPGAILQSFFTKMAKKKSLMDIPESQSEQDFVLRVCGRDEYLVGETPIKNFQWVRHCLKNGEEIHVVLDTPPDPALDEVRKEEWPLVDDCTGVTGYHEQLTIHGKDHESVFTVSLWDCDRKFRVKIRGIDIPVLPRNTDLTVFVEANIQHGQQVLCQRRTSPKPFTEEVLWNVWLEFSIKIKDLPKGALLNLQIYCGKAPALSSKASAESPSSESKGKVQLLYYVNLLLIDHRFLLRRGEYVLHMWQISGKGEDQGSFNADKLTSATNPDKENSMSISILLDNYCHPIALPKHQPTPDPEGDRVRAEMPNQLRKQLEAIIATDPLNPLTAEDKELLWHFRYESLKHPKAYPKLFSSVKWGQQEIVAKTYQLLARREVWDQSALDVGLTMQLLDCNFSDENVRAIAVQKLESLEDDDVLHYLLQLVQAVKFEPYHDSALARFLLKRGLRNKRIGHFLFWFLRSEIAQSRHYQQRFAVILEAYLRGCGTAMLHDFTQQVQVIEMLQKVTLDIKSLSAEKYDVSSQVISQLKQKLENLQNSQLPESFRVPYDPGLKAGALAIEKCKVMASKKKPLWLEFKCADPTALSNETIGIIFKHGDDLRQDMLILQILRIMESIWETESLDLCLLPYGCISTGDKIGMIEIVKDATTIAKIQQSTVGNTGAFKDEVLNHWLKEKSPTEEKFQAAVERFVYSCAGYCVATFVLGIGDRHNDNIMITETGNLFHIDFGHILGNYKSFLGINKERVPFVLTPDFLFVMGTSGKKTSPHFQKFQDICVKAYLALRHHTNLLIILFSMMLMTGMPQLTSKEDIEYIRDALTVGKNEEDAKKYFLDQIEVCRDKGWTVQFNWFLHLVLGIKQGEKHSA
- assay-overview: Inhibition of N-terminal His6-tagged recombinant full length human PI3Kgamma expressed in baculovirus infected Sf21 insect cells at 1 uM by HTRF assay relative to control
Quick reference for inhibition among some molecules
Write the quantity with the unit trailing the number.

1) C[C@H]1CC[C@@H](c2nc3cccc(Cl)c3c(=O)n2-c2ccccc2)N1c1nc(N)nc(N)c1C#N: -3%
2) C[C@H]1CC[C@@H](c2nc3cccc(Cl)c3c(=O)n2-c2ccccc2)N1c1cc(Cl)nc(N)n1: 96%
3) N#Cc1c(N)nc(N)nc1N1[C@H](c2nc3cccc(Cl)c3c(=O)n2-c2cc(F)cc(F)c2)C[C@@H]2CCCC[C@@H]21: 49%

Next, consider the following molecule.
(Q) Which inhibition reading was recorded for the molecule Cc1cc(N2[C@@H](C)CC[C@H]2c2nc3cccc(Cl)c3c(=O)n2-c2ccccc2)nc(N)n1 ?
(A) 96%

From: ChEMBL document CHEMBL5120922
